src = PubChem BioAssay AID2546

procedureDetails: VP16 counterscreen qHTS for inhibitors of ROR gamma transcriptional activity;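 further: Gal4-VP16 expression switched on by copper sulfate through the metallothionein promoter; nearly all actives have a fitted effect of over 50% in size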; further: potency means the concentration at half of the fitted maximal effect
details: Drosophila S2 Gal4-VP16 UAS-luciferase, luminescence, 20 h; series mostly up to 53.6 µM
Out of some 310,000 compounds screened, about 11,000 (3.5%) were called active. Another 8% or so got no clear call; they are omitted. This is one part of a sample in which actives are shown more often than they occur.
reportedProperty: Potency

O=C(CCCCCNC(=O)c1ccccc1)N/N=C/c1ccccc1 = inactive
Cc1nc(=O)c(-c2ccccc2)c(C)n1-c1ccc(Br)cc1 = inactive
Cc1cccn2c(=O)c(/C=C(\C#N)C(N)=O)c(N3CCCCCC3)nc12 = inactive
O=C(O)CCC(=O)Nc1ccc(OCC2CCCO2)cc1 (centres undefined) = inactive
Cc1ccccc1-c1n[nH]c(=S)n1C = 7.94 µM (active)

Need Potency of Cc1ccc(S(=O)(=O)N(CC(=O)Nc2cccnc2)c2ccc(Br)cc2)cc1 , thanks. inactive

Field entry: CCN1CCN(c2sc(S(C)(=O)=O)nc2S(=O)(=O)c2ccc(Cl)cc2)CC1 inactive

Field entry: O=C(C1CCCN(S(=O)(=O)c2ccc([N+](=O)[O-])cc2)C1)N1CCCCC1 (centres undefined) inactive

Field entry: O=C(Nc1ccc(F)cc1)C(=O)c1cn(CC(=O)N2CCOCC2)c2ccccc12 inactive

Field entry: CCc1ccc(CNC(=O)C2CCCN(c3nc4ccccc4o3)C2)cc1 (centres undefined) inactive

Field entry: O=S(=O)(NC1CCCCC1N1CCCCC1)c1ccc(Cl)cc1 (centres undefined) inactive

Field entry: O=C(Nc1cccc(Cl)c1N1CCOCC1)c1cccnc1 inactive

Field entry: CC1CCN(c2ccc(S(=O)(=O)Nc3cc(C(=O)O)cc(C(=O)O)c3)cc2[N+](=O)[O-])CC1 inactive

Field entry: Cc1ccccc1-c1n[nH]c(=S)n1/N=C/c1ccc(-c2ccccc2Br)o1 inactive

Field entry: O=C(c1ccc(S(=O)(=O)N2CCCC2)cc1)N1CCN(c2ccccc2F)CC1 inactive

Field entry: CCn1c(C(C)C)n[nH]c1=S inactive

Field entry: O=C(O)CCn1c(O)c(C=C2N=c3ccccc3=N2)sc1=S 3.55 µM (active)

Field entry: COc1ccc(CNC(=O)/C(C#N)=C/c2cccc(OC)c2OC)cc1 inactive

Field entry: Fc1cccc2ncnc(OCc3ccccc3)c12 inactive

Field entry: CCOC(=O)c1cnc(Nc2nc3ccccc3o2)nc1CSC(=S)N1CCCCC1 1 µM (active)

Field entry: COc1ccc(NC(=O)c2cc(-c3cc(OC)c(OC)c(OC)c3)nc3ccccc23)c(OC)c1 inactive

Field entry: CCOC(=O)CCNC(=O)N1CCCC(C(=O)c2ccccc2SC)C1 (centres undefined) inactive

Field entry: COc1ccc(C(=O)NC(C)c2nccs2)cc1OC1CCN(C(C)C)CC1 (centres undefined) inactive

Field entry: CSCCC(NS(=O)(=O)c1ccc(C)cc1)C(=O)NCCc1c[nH]c2ccccc12 (centres undefined) inactive

Field entry: Cc1nn2c(NCCN(C)C)c3c(nc2c1-c1ccccc1)CCC3 0.794 µM (active)

Field entry: COc1ccc(CCNC(=O)CS(=O)(=O)Cc2nc(-c3ccc(C)cc3)oc2C)cc1OC inactive

Field entry: Brc1ccccc1C1N=C(c2ccccc2)NO1 (centres undefined) inactive

Field entry: Cc1cc(N2CCCC2)n2nc(C)c(-c3ccccc3)c2n1 inactive

Field entry: O=c1c(-c2cccc(Cl)c2)c[nH]n1-c1ccccc1 inactive

Field entry: Cc1ccc2nc(N3C(=O)C(O)=C(C(=O)c4ccco4)C3c3cccc(O)c3)sc2c1 (centres undefined) inactive

Field entry: N#CC(C#N)=CN=c1ccn(Cc2ccc(Cl)cc2Cl)cc1 inactive

Field entry: S=C1NC(c2ccccc2)=NCN1c1ccc(Br)cc1 20 µM (active)
